Below, each of the molecules is paired with its reported viability, T/C value.
# Test system: 953936-095-R-J2-PDC spheroids with HUVEC/MSC, viability
# EXPERIMENT DESCRIPTION: Anticancer human tumor 953936-095-R-J2-PDC patient-derived cervical squamous cell carcinoma cell line growth inhibition [PI3K]
# STUDY CONDITIONS: second compound 0.1 µM; first compound 0.1 µM; active compounds read low
Reply with just the number (in %).

Example cases with answers are listed next.
molecule="C=CC(=O)N1CCN(c2nc(=O)n(-c3c(C)ccnc3C(C)C)c3nc(-c4c(O)cccc4F)c(F)cc23)C(C)C1 (stereo not drawn) + CC(Nc1ccc2c(c1)OCCn1cc(N3C(=O)OCC3C(F)F)nc1-2)C(N)=O" unit_label=% numeric_readout=56.2
molecule="Cn1ncc(Cl)c1-c1cc(C(=O)NC(CN)Cc2cccc(F)c2)sc1Cl (stereo not drawn) + Cc1nc(NC(=O)N2CCCC2C(N)=O)sc1-c1ccnc(C(C)(C)C(F)(F)F)c1" unit_label=% numeric_readout=77.3

Let's switch to this molecule now.
Please give the measured viability, T/C for this molecule: CC1(C)CCC(CN2CCN(c3ccc(C(=O)NS(=O)(=O)c4ccc(NCC5CCOCC5)c([N+](=O)[O-])c4)c(Oc4cnc5[nH]ccc5c4)c3)CC2)=C(c2ccc(Cl)cc2)C1 + Cc1nc(NC(=O)N2CCCC2C(N)=O)sc1-c1ccnc(C(C)(C)C(F)(F)F)c1 82.5

====

# Test system: 953936-095-R-J2-PDC spheroids with HUVEC/MSC, viability
# EXPERIMENT DESCRIPTION: Anticancer human tumor 953936-095-R-J2-PDC cell line growth inhibition [PI3K];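 note: spheroids exposed to compounds for seven days before read-out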
# STUDY CONDITIONS: second compound 0.01 µM; first compound 0.00316 µM; active compounds read low
Under this convention, MET denotes viability, T/C strictly below 80% and NOT MET denotes viability, T/C at or above 80%.

compound="CC(=O)c1c(C)c2cnc(Nc3ccc(N4CCNCC4)cn3)nc2n(C2CCCC2)c1=O + COc1c(OCCCN2CCOCC2)ccc2c3n(c(=NC(=O)c4cnc(N)nc4)nc12)CCN3" experimental_target="953936-095-R-J2-PDC spheroids with HUVEC/MSC, viability" category_label="NOT MET"
compound="Cn1ncnc1[C@H]1c2n[nH]c(=O)c3cc(F)cc(c23)N[C@@H]1c1ccc(F)cc1 + CC(Nc1ccc2c(c1)OCCn1cc(N3C(=O)OCC3C(F)F)nc1-2)C(N)=O" experimental_target="953936-095-R-J2-PDC spheroids with HUVEC/MSC, viability" category_label="NOT MET"
compound="CC(=O)c1c(C)c2cnc(Nc3ccc(N4CCNCC4)cn3)nc2n(C2CCCC2)c1=O + CC(Nc1ccc2c(c1)OCCn1cc(N3C(=O)OCC3C(F)F)nc1-2)C(N)=O" experimental_target="953936-095-R-J2-PDC spheroids with HUVEC/MSC, viability" category_label="NOT MET"
compound="CC(C)n1nc(-c2ccc3oc(N)nc3c2)c2c(N)ncnc21 + COc1c(OCCCN2CCOCC2)ccc2c3n(c(=NC(=O)c4cnc(N)nc4)nc12)CCN3" experimental_target="953936-095-R-J2-PDC spheroids with HUVEC/MSC, viability" category_label=MET
compound="CCN1CCN(Cc2ccc(Nc3ncc(F)c(-c4cc(F)c5nc(C)n(C(C)C)c5c4)n3)nc2)CC1 + CC(Nc1ccc2c(c1)OCCn1cc(N3C(=O)OCC3C(F)F)nc1-2)C(N)=O" experimental_target="953936-095-R-J2-PDC spheroids with HUVEC/MSC, viability" category_label="NOT MET"

Find out if reported viability, T/C for CCN1CCN(Cc2ccc(Nc3ncc(F)c(-c4cc(F)c5nc(C)n(C(C)C)c5c4)n3)nc2)CC1 + COc1c(OCCCN2CCOCC2)ccc2c3n(c(=NC(=O)c4cnc(N)nc4)nc12)CCN3 is less than 80% MET
